Target: T1, Ep-CAM (UniProt P16422 24-265, limits assumed)
T1 construct: Antigen of the Biacore analysis of ING-1 variants
T1 sequence (looked up): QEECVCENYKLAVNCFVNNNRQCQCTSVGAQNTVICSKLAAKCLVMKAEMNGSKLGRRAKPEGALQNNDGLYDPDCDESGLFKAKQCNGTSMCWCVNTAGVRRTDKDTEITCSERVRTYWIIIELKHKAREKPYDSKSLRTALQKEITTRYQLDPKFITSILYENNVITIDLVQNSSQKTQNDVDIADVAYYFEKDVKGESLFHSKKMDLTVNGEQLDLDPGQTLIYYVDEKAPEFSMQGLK
Assay: Biacore, Fab periplasmic extract

Binder: ING-1 heavy chain W50N (Fab, V domains shown) VH: QIQLVQSGPELKKPGETVKISCKASGYTFTKYGMNWVKQAPGKGLKWMGNINTYTEEPTYGDDFKGRFAFSLETSASTANLQINNLKSEDTATYFCARFGSAVDYWGQGTSVTVSS VL: DIVMTQAAFSNPVTLGTSGSISCRSSKSLLHSNGITYLYWYLQKPGQSPQLLIYQMSNLASGVPDRFSSSGSGTDFTLRISRVEAEDVGVYYCAQNLELPRTFGGGTKLEMKR
fold difference in affinity vs original (fold): 0.03
--
Binder: ING-1 heavy chain W50Q (Fab, V domains shown) VH: QIQLVQSGPELKKPGETVKISCKASGYTFTKYGMNWVKQAPGKGLKWMGQINTYTEEPTYGDDFKGRFAFSLETSASTANLQINNLKSEDTATYFCARFGSAVDYWGQGTSVTVSS VL: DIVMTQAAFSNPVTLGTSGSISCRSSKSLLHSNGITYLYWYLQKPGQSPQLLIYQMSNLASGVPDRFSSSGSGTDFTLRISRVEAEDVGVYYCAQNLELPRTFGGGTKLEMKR
fold difference in affinity vs original (fold): 0.01
